System: HBV cccDNA (HBeAg level) in HepDES19 cells
Test: Engineered HepDES19 primary screen assay (HBeAg as surrogate marker for cccDNA)
Assay type: cell-based
Settings: Hepatitis B virus, HepDES19, 120 h
Text: The assay was employed to screen for novel cccDNA inhibitors. HepDES19 is a cccDNA-producing cell line. In this cell line, HBeAg in the cell culture supernatant as surrogate marker, as HBeAg production depends on cccDNA level and activity. HepDES19 is an engineered cell line which contains a 1.1 unit length HBV genome, and pgRNA transcription from the transgene is controlled by Tetracycline (Tet). […]
observed property: IC50 (µM)
Number only, in µM; omit the unit.

Examples with answers:
compound	assayed target	data value
Cc1cc(NC(=O)c2cc(=O)c3cccc(Cl)c3o2)ncc1Br	HBV cccDNA (HBeAg level) in HepDES19 cells	11.9
O=C(c1cc(=O)c2cccc(Cl)c2o1)N1Cc2cccc(Br)c2C1	HBV cccDNA (HBeAg level) in HepDES19 cells	26.8
COc1ccc2c(c1)CCN(c1cc(=O)c3cccc(Cl)c3o1)C2=O	HBV cccDNA (HBeAg level) in HepDES19 cells	5.44
COC(=O)c1cccc(N2CCN(c3cc(=O)c4cccc(Cl)c4o3)CC2)c1	HBV cccDNA (HBeAg level) in HepDES19 cells	15

Sample Cc1cc(Cl)ccc1NC(=O)c1cc(=O)c2cccc(Cl)c2o1 ; IC50 observed: 0.32

Sample COC(=O)c1cccc(C(=O)N2CC3(C2)CN(c2cc(=O)c4cccc(Cl)c4o2)C3)c1 ; IC50 observed: 31.7

Sample O=c1cc(N2CC3(CC(O)C3)C2)oc2c(Cl)cccc12 ; IC50 observed: 10.7

Sample COC(=O)c1cc(Cl)ccc1NC(=O)c1cc(=O)c2cccc(Cl)c2o1 ; IC50 observed: 16.2

Sample COc1ccc(CNc2cc(=O)c3cccc(Cl)c3o2)cc1 ; IC50 observed: 15

Sample O=C(O)C1CC(OCCOc2ccc(C3CCN(c4cc(=O)c5cc(F)cc(Cl)c5o4)CC3)cc2)C1 (stereo not drawn) ; IC50 observed: 14.1

Sample O=c1c(I)c(N2CCC(O)CC2)oc2c(Cl)cccc12 ; IC50 observed: 30.9

Sample COc1ccc2c(c1)CN(c1cc(=O)c3cccc(Cl)c3o1)C2=O ; IC50 observed: 4.78

Sample COc1ccc(CN(C)c2cc(=O)c3cccc(Cl)c3o2)cc1 ; IC50 observed: 12.1

Sample CN(Cc1ccc(OCCOC2CC(C(=O)O)C2)cc1)c1cc(=O)c2cccc(Cl)c2o1 (stereo not drawn) ; IC50 observed: 19.6

Sample COC(=O)c1ccc(NC(=O)c2cc(=O)c3cccc(Cl)c3o2)c(C)c1 ; IC50 observed: 23.4

Sample O=C(c1cc(=O)c2cccc(Cl)c2o1)N1CCCc2ccc([N+](=O)[O-])cc21 ; IC50 observed: 35.3

Sample O=C(O)C1CC(OCCOc2ccc(CNc3cc(=O)c4cccc(Cl)c4o3)cc2)C1 (stereo not drawn) ; IC50 observed: 30.8
